# Study target: human progesterone receptor (Homo sapiens, UniProt P06401)
# Sequence (P06401 679-933 limits assumed): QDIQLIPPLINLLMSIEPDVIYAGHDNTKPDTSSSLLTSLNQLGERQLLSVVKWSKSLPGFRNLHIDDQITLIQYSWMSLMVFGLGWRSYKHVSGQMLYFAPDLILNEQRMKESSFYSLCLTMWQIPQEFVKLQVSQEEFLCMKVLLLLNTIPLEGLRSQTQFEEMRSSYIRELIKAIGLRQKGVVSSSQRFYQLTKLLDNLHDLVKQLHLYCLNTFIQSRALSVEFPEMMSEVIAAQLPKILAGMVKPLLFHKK
# Assay comment: Progesterone receptor binding assay, human PR (CEREP)
# Test parameters: 3H-R5020 as ligand, MCF7 cells as source of PR; read-out: Human PR binding (pKi) (converted)
As shown below, each of these molecules has a reported Ki value.

[
  {
    "Chem smiles": "CSc1cccc(NC(=O)O[C@H]2C[C@]3(C)[C@@H](C(C)=O)CC[C@H]3[C@@H]3C=CC4=CC(=O)CC[C@@]4(C)[C@@H]32)c1",
    "Study target": "human progesterone receptor (Homo sapiens, UniProt P06401)",
    "Relation": "≥",
    "Ki, nM": 631
  },
  {
    "Chem smiles": "COc1ccccc1N1CCN(C(=O)O[C@H]2C[C@]3(C)[C@@H](C(C)=O)CC[C@H]3[C@@H]3C=CC4=CC(=O)CC[C@@]4(C)[C@@H]32)CC1",
    "Study target": "human progesterone receptor (Homo sapiens, UniProt P06401)",
    "Relation": "≥",
    "Ki, nM": 631
  },
  {
    "Chem smiles": "COc1ccc(CNC(=O)O[C@H]2C[C@]3(C)[C@@H](C(C)=O)CC[C@H]3[C@@H]3C=CC4=CC(=O)CC[C@@]4(C)[C@@H]32)cc1",
    "Study target": "human progesterone receptor (Homo sapiens, UniProt P06401)",
    "Relation": "=",
    "Ki, nM": 100
  },
  {
    "Chem smiles": "CCO[C@]1(C(C)=O)CC[C@H]2[C@@H]3C=CC4=CC(=O)CC[C@@]4(C)[C@@H]3[C@@H](OC(=O)Nc3ccc4c(c3)OCO4)C[C@@]21C",
    "Study target": "human progesterone receptor (Homo sapiens, UniProt P06401)",
    "Relation": "=",
    "Ki, nM": 126
  },
  {
    "Chem smiles": "CC(=O)[C@H]1CC[C@H]2[C@@H]3C=CC4=CC(=O)CC[C@@]4(C)[C@@H]3[C@@H](OC(=O)Nc3ccc(F)c(C#N)c3)C[C@]12C",
    "Study target": "human progesterone receptor (Homo sapiens, UniProt P06401)",
    "Relation": "=",
    "Ki, nM": 501
  },
  {
    "Chem smiles": "CC(=O)[C@H]1CC[C@H]2[C@@H]3C=CC4=CC(=O)CC[C@@]4(C)[C@@H]3[C@@H](OC(=O)Nc3ccc4[nH]ccc4c3)C[C@]12C",
    "Study target": "human progesterone receptor (Homo sapiens, UniProt P06401)",
    "Relation": "≥",
    "Ki, nM": 631
  }
]
